The following molecules are listed with their measured IC50 values.
# Tested on: T98G
# Protocol description: MTT colorimetric assay, overall cell growth;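 also: growth inhibition of the human glioblastoma line measured by MTT reduction to formazan, optical density read on a spectrophotometer at 570 nm, untreated cells as control, nine concentrations from 10 nM to 100 µM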
# Stated conditions: Homo sapiens, 72 h, read-out: IC50 (µM) In Vitro Growth Inhibitory Concentrations (MTT Colorimetric Assay) T98G
Please state the figure in µM; there is no need to write the unit.

Answered cases to consult:
- Molecule: "CC(C)(C)OC(=O)Nc1ccc2c(c1)C(NC(=O)Nc1c(Cl)cccc1C(F)(F)F)CC(C)(C)O2 (racemic) [Example 32]"
  IC50 [µM]: 60
- Molecule: "CC(C)(C)OC(=O)Nc1ccc2c(c1)C(NC(=O)Nc1ccccc1C#N)CCO2 (racemic) [Example 4]"
  IC50 [µM]: 65
- Molecule: "CC(C)(C)OC(=O)Nc1ccc2c(c1)C(NC(=O)Nc1cccc([N+](=O)[O-])c1)CC(C)(C)O2 (racemic) [Example 23]"
  IC50 [µM]: 7

I am curious: what IC50 value has been reported for CC(C)(C)OC(=O)Nc1ccc2c(c1)C(NC(=O)Nc1ccc(F)cc1)CC(C)(C)O2 (racemic) [Example 18] ?
33
